Data credit: ChEMBL document CHEMBL3272107

test system: Rattus norvegicus; assay: Vasopressor activity in iv dosed phenoxybenzamine treated rat; format: functional
Field 'label' (enum: Criterion met / Criterion not met). Set to Criterion met when Activity is strictly under 300 U/mg; else Criterion not met.

Some entries whose results are on file:
compound	label
NCCCC[C@H](NC(=O)[C@@H]1CCCN1C(=O)[C@@H]1CSSC[C@H](N)C(=O)N[C@@H](Cc2ccc(O)cc2)C(=O)N[C@@H](Cc2ccccc2)C(=O)N[C@@H](CCC(N)=O)C(=O)N[C@@H](CC(N)=O)C(=O)N1)C(=O)NCC(N)=O [LYPRESSIN]	Criterion met
COc1ccc(C[C@@H]2NC(=O)[C@@H](N)CSSC[C@@H](C(=O)N3CCC[C@H]3C(=O)N[C@@H](CCCNC(=N)N)C(=O)NCC(N)=O)NC(=O)[C@H](CC(N)=O)NC(=O)[C@H](CCC(N)=O)NC(=O)[C@H](Cc3ccccc3)NC2=O)cc1	Criterion met

I'd appreciate it if you could check whether N=C(N)NCCC[C@@H](NC(=O)[C@@H]1CCCN1C(=O)[C@@H]1CSSCCC(=O)N[C@@H](Cc2ccc(O)cc2)C(=O)N[C@@H](Cc2ccccc2)C(=O)N[C@@H](CCC(N)=O)C(=O)N[C@@H](CC(N)=O)C(=O)N1)C(=O)NCC(N)=O [DESMOPRESSIN] has Activity smaller than 300 U/mg.
Criterion not met

// next record CC[C@H](C)[C@@H]1NC(=O)[C@H](Cc2ccc(O)cc2)NC(=O)CCSSC[C@@H](C(=O)N2CCC[C@H]2C(=O)N[C@@H](CC(C)C)C(=O)NCC(N)=O)NC(=O)[C@H](CC(N)=O)NC(=O)[C@H](CCC(N)=O)NC1=O [DEMOXYTOCIN]
Criterion met

// next record COc1ccc(C[C@@H]2NC(=O)[C@@H](N)CSSC[C@@H](C(=O)N3CCC[C@H]3C(=O)N[C@@H](CCCCN)C(=O)NCC(N)=O)NC(=O)[C@H](CC(N)=O)NC(=O)[C@H](CCC(N)=O)NC(=O)[C@H](Cc3ccccc3)NC2=O)cc1
Criterion met
